# Test system: MS2 coat protein
# assay.info: apparent KD of MS2 coat protein; higher = weaker reporter binding
# recorded.conditions: Eterna round: R107; input ligand: theophylline 20 uM
observation.type: apparent KD of MS2 coat protein (nM)

{"columns": ["sequence.content", "observation.type", "unit", "value"],
 "data": [
  ["AAUUCAAGGUUCUUGAUGUAUUAUAUAUUUCGAGGACCGGUACGGCCGCCACUCGUUAAUUACAUGAGGAUCACCCAUGUUAGCU [JR_ExcTryptoA_Sub010]", "apparent KD of MS2 coat protein", "nM", 16],
  ["CAUGGGUGGUAUCACCCAUCCAUAGGUGAUACCAGCAUCGAAAGAUGCCCUUGGCAGCACCAACAUGAGGAUCACCCAUGUAAUA [(M)'-(T)'-(M)''-(T1)-(T2)-(M1)-(M2)_Design2]", "apparent KD of MS2 coat protein", "nM", 189],
  ["AUACAUGAGGAUCACCCAUGUCAUACAGAAGGAGCGUCAUAUUAGACAGGUAGGUCGCUGUAAUUUUUAUUAUUCUUUAUGUAUU [JR_Nu_ExcArginiA_Sub026]", "apparent KD of MS2 coat protein", "nM", 33.5]
]}

* * *

# System: MS2 coat protein
# assay.info: apparent KD of MS2 coat protein, switch OFF state (with FMN for OFF switches, without FMN for ON switches); designed switch direction (-1 OFF switch, 1 ON switch): 1; higher = weaker reporter binding
# recorded.conditions: FMN input: 0 or 200 uM; Eterna round: R93 (includes R88 designs)

{"columns": ["sequence.content", "apparent KD of MS2 coat protein [nM]"],
 "data": [
  ["AAUAAUUAUACGAAGGAUAUCGGUAAUUAGACAUGAGGAUCACCCAUGUAAUAUGGUUAAAUAAUCGAGAAGGUCGAGGGUGAAA [JR_SS002_Sub503]", 42.2],
  ["AGGAAACAUGAGGAUCACCCAUGUAAAAAAGUGGGAGGAUAUGCGAAAAGAAAAAGAAAAGCAGAAGGCCUAAGAA [62%, Something completely different, 6]", 42.7],
  ["AACAAUCUAUCUGAGGAUAUCAUGAAAAAGACAUGAGGAUCACCCAUGUACCAGGAAACUGGUUAUGAGAAGGCAGAUAGAUUGA [SS2: 1116]", 14.4],
  ["UGAAGACAUGAGGAUCACCCAUGUGGGAUUAUGGGAGGAUAUACAAAGACGAGAGUCAGAGUAGAAGGCCUAGGAA [salish99-ss1-116(!)]", 68],
  ["AAAAAAAAAACAUAGGAUAUCCGGGCCGGGACAUGAGGAUCACCCAUGUCAAAAAAAAUUGGCCCGGAGAAGGAUGAAAAAAAAAA [SAmeState2-II]", 14]
]}

* * *

# System: MS2 coat protein
# assay.info: apparent KD of MS2 coat protein, switch ON state; designed switch direction (-1 OFF switch, 1 ON switch): -1; higher = weaker reporter binding
# recorded.conditions: FMN input: 0 or 200 uM; Eterna round: R93 (includes R88 designs)
We use 30 nM as the dividing line for apparent KD of MS2 coat protein: on or above the line is label 1, below is label 0.

{"columns": ["sequence.content", "label.class"],
 "data": [
  ["AACAAGUCAGGAUAUUCGAAAAGUAAAUAAGUAAAACAAAAGAAGAAGGGACAUGAGGAUCACCCAUGUAAAUA [JR_Exc004_Sub016]", "label 1"],
  ["AAAGGGCGAGGAUAUACAUGAGGAUCACCCAUGUAAAAAACAUAAUAAAAGAAUUUAUGUAGAAGGCGCCCAAA [Ruby 60]", "label 0"],
  ["CUCAUGUGAGGAUAUCAGUAGUAAAAAAAUAAAAUUACUACUGAGAAGGCACAUGAGGAUCACCCAUGUGUCUU [EX4 331: Super Stable 31]", "label 1"],
  ["AAAAAACAUGAGGAUCACCCAUGUCAGGAUAUCCGGUUCUUGAAAAUCAAGAGGCGUUGGAGAAGGGACAUUCC [Chica Displaced 14 - Jieux - Exclusion 1]", "label 0"],
  ["GUGUACAGAGGAUAUACAUAAGCUAGGAAACUAGCAAGAUCACAUGAGGAUCACCCAUGUAGAAGGCUGUACAC [Ex2: 739]", "label 1"],
  ["GGUUGUGGAGGAUAUACAUGAGGAUCACCCAUGUGAGAGAAAAAAGUGAGAAAGAAAAGUAGAAGGUCGUGACG [salish99-ex3-69]", "label 1"],
  ["AAAUUGUCAGGAUAUCCUAUAAUAAUAAAAUAGAGGAGAUAGGAGAAGGGACAUGAGGAUCACCCAUGUAAAAC [May 85]", "label 1"],
  ["CAGUGACAUGAGGAUCACCCAUGUUAGGAUAUGCGUGUUAGAAAAAAAAAGUUAAUAAGCAGAAGGAACAGUGG [JR_Exc001_Sub311]", "label 1"],
  ["AAAAAACAUGAGGAUCACCCAUGUGAGGAUAUGCGAAAAUAAAAUAAAAUAAUAAAAAGCAGAAGGCACACCAA [58%, Sh'dynasty, 2]", "label 0"]
]}

* * *

# Tested on: MS2 coat protein
# assay.info: apparent KD of MS2 coat protein; higher = weaker reporter binding
# recorded.conditions: Eterna round: R107; input ligand: tryptophan 2.4 mM
Returns MET if the recorded apparent KD of MS2 coat protein is greater than or equal to 80 nM, and NOT MET otherwise.

{"columns": ["sequence.content", "target.under.test", "label.class"],
 "data": [
  ["AGUACUCGAACGGAUACCAGCCGGACAUGAGGAUCACCCAUGUCCUACCUCUGUUCGGUUGGCCCUUGGCAGCCGUUCGUGUACA [Omei Theo B SS A v7]", "MS2 coat protein", "MET"],
  ["ACGAUAGGACCUGAGGAUCACCCUGGUGAUACCAGCCUGGAAACAGGCCCUUGGCAGCACAAAUACUCCAAUAACCUAUCGAAUA [TheoAX 13 #MicroSwitchBubble #AlternativeMS2]", "MS2 coat protein", "MET"],
  ["CAAAACCUUACAGAUACCAGCACAUGAGGAUCACCCAUGUAUUGGACACUUCGCUCAUCGUGCCCUUGGCAGCUGUGGGACGAGG [Tiatenan]", "MS2 coat protein", "NOT MET"],
  ["AGAUUUAUUUUGACCGGGCUCAUUCCUGAAGGAGCGCAGAACAAUGCAGGUAGGUCGCAGGACAUGAGGAUCACCCAUGUCAAGC [Isaes]", "MS2 coat protein", "NOT MET"],
  ["ACCUGUACGAAAAGUGCAGGACAUGGAAAUCGAGGACCGGUACGGCCGCCACUCGUUGAAAACAAGUGGAUCACCCUUGUCCAUG [TrypAS 3 #AlternativeMS2 #Zipper #StaticStem]", "MS2 coat protein", "MET"],
  ["ACAUGAGGAUCACCCAUGUACAUAAGGGAAGGAGCGCGGUGAAACGCAGGUAGGUCGCCCAUAAUAACAAACAUUAAAUUCAUGU [LeftA2]", "MS2 coat protein", "NOT MET"],
  ["AGAUUACAUGUUUUAAUACGGAAAACUGAUACCAGUGUAUCUAUUCACCCUUGGCAGCAGCAACAUGAGGAUCACCCAUGUAUUA [JR_SSTheophyA_Sub016]", "MS2 coat protein", "NOT MET"],
  ["CCUAUGACAUGAGGAUCACCCAUGUUGGAUACCAGCGCAUGAGGACGCCCUUGGCAGCCAAUGAACAUGAGGAUACAUGAGGAUC [Same State Theophylline A 4]", "MS2 coat protein", "NOT MET"],
  ["CUCCCGUGAGCGGCCGCCACUGGAGGCCUCGCGCGACAUGAGGAUCACCCAUGUUGGCCCGGCCUCAGGACCGGGUUCGCGUGAG [Same State - Tryptophan B Attempt #6 (HarryS)]", "MS2 coat protein", "NOT MET"],
  ["UUCAAAGGGAACGGUGCUGGUGACAGAGAUACCAGCGCGGUAACGCGCCCUUGGCAGCUCAGAACAUGAGGAUCACCCAUGUAAU [Exclusion Theophylline A GF23]", "MS2 coat protein", "NOT MET"],
  ["UAUUUUGGGCGCGAGCCCGGGAUAAUUGAUACCAGUGAAGAAGAGCGCCCUUGGCAGCGAAUCCUAACAUGAGGAUCACCCAUGU [5.Q]", "MS2 coat protein", "NOT MET"],
  ["AGUUAAAUAUGUUAAUAACUAUUUACUGAAGGAGCGUGUUUUGACACAGGUAGGUCGCAGUGACAUGAGGAUCACCCAUGUCGUA [#08 Same State - Arginine A]", "MS2 coat protein", "NOT MET"],
  ["GGGCGACAUGAGGAUCACCCAUGUGUCGAUACCAGUAUGAAUUUCUACCCUUGGCAGCGACGACACGGUUAUUUGUGCACUUCGA [theeternabot_sameState_MS2_Theo_A_5]", "MS2 coat protein", "MET"],
  ["CGGUUUGUGAUGGAUACCAGCAGAGUGAAUGUUUAUCCUGACAUGAGGAUCACCCAUGUGUGCCCUUGGCAGCUGUUGUGGGCUG [8.Z]", "MS2 coat protein", "NOT MET"],
  ["UUAAUGGAGCUUUUAUUUACGAUUUCUGAUACCAGUGUUUCAUUUCACCCUUGGCAGCAGUGACAUGAGGAUCACCCAUGUAAUA [JR_Nu_SSTheophyA_Sub021]", "MS2 coat protein", "NOT MET"],
  ["AAAGGUCGCAAUAAAUCUCCUACAUGUGAAGGAGCGCGCGAAAGCGCAGGUAGGUCGCACAUGAGGAUCACCCAUGUGAGCGACC [MAT - Exclusion Arginine A - Mod of Eli - D3]", "MS2 coat protein", "NOT MET"],
  ["AGUAAUCUAACAGAUACCAGACGGUAUAUAACAUGAGGAUCACCCAUGUCUUGGGUGUACGUCCCUUGGCAGCUGAAAAUGAUAA [JR_SSTheophyB_Sub001]", "MS2 coat protein", "MET"]
]}
